- Test system: Colletotrichum falcatum
- PROTOCOL_SUMMARY: Antifungal activity against Glomerella tucumanensis at 300 ug/ml after 48 hr
- Assay type: functional
- EXPERIMENTAL_CONDITIONS: read-out: IZ
READOUT_KIND: zone of inhibition at 300 µg/mL (mm)
Express your answer in mm, writing the number without its unit.

c1ccc(-c2nnc(CN3CCC(n4nc5ccccc5n4)CC3)o2)cc1; 3.56
Fc1cccc(-c2nnc(CN3CCC(n4nc5ccccc5n4)CC3)o2)c1F; 4.82
CCC(C)n1ncn(-c2ccc(N3CCN(c4ccc(OCC5COC(Cn6cncn6)(c6ccc(Cl)cc6Cl)O5)cc4)CC3)cc2)c1=O (centres undefined); 4.67
Cc1c(Br)cccc1-c1nnc(CN2CCC(n3nc4ccccc4n3)CC2)o1; 3.97
O=[N+]([O-])c1ccc(-c2nnc(CN3CCC(n4nc5ccccc5n4)CC3)o2)cc1Cl; 4.57

Summary for this compound, `Cc1ccc(-c2nnc(CN3CCC(n4nc5ccccc5n4)CC3)o2)cc1Br` : zone of inhibition at 300 µg/mL is 4.22

Summary for this compound, `COc1cccc(-c2nnc(CN3CCC(n4nc5ccccc5n4)CC3)o2)c1` : zone of inhibition at 300 µg/mL is 4.56

Summary for this compound, `Brc1cccc(-c2nnc(CN3CCC(n4nc5ccccc5n4)CC3)o2)c1` : zone of inhibition at 300 µg/mL is 2.95

Summary for this compound, `CC(C)(C)c1cc(-c2nnc(CN3CCC(n4nc5ccccc5n4)CC3)o2)cc(C(C)(C)C)c1` : zone of inhibition at 300 µg/mL is 3.98

* * *

- System: Klebsiella aerogenes
- PROTOCOL_SUMMARY: Antibacterial activity against Enterobacter aerogenes at 600 ug/ml after overnight incubation
- Assay type: functional
- EXPERIMENTAL_CONDITIONS: read-out: IZ
Threshold check on zone of inhibition at 600 µg/mL: at or above 4 mm gives fulfilled, strictly below gives not fulfilled.

Worked set:
Cc1c(Br)cccc1-c1nnc(CN2CCC(n3nc4ccccc4n3)CC2)o1; not fulfilled
Cc1ccc(-c2nnc(CN3CCC(n4nc5ccccc5n4)CC3)o2)cc1Br; not fulfilled
O=[N+]([O-])c1ccc(-c2nnc(CN3CCC(n4nc5ccccc5n4)CC3)o2)cc1Cl; fulfilled

Data request: Is zone of inhibition at 600 µg/mL at least 4 mm? Consider `COc1cccc(-c2nnc(CN3CCC(n4nc5ccccc5n4)CC3)o2)c1`
Data returned: not fulfilled

Data request: Is zone of inhibition at 600 µg/mL at least 4 mm? Consider `CC(C)(C)c1cc(-c2nnc(CN3CCC(n4nc5ccccc5n4)CC3)o2)cc(C(C)(C)C)c1`
Data returned: not fulfilled

Data request: Is zone of inhibition at 600 µg/mL at least 4 mm? Consider `Brc1cccc(-c2nnc(CN3CCC(n4nc5ccccc5n4)CC3)o2)c1`
Data returned: fulfilled

Data request: Is zone of inhibition at 600 µg/mL at least 4 mm? Consider `c1ccc(-c2nnc(CN3CCC(n4nc5ccccc5n4)CC3)o2)cc1`
Data returned: fulfilled

Data request: Is zone of inhibition at 600 µg/mL at least 4 mm? Consider `CN[C@@H]1[C@H](O[C@H]2[C@H](O[C@H]3[C@H](O)[C@@H](O)[C@H](N=C(N)N)[C@@H](O)[C@@H]3N=C(N)N)O[C@@H](C)[C@]2(O)C=O)O[C@@H](CO)[C@H](O)[C@H]1O`
Data returned: fulfilled

Data request: Is zone of inhibition at 600 µg/mL at least 4 mm? Consider `Fc1cccc(-c2nnc(CN3CCC(n4nc5ccccc5n4)CC3)o2)c1F`
Data returned: not fulfilled

* * *

- Tested on: Enterococcus faecalis
- PROTOCOL_SUMMARY: Antibacterial activity against Enterococcus faecalis at 900 ug/ml after overnight incubation
- Assay type: functional
- EXPERIMENTAL_CONDITIONS: read-out: IZ
Catalogue of molecules with associated zone of inhibition at 900 µg/mL
Express your answer in mm, writing the number without its unit.

Cc1ccc(-c2nnc(CN3CCC(n4nc5ccccc5n4)CC3)o2)cc1Br; 5.56

Entry `CN[C@@H]1[C@H](O[C@H]2[C@H](O[C@H]3[C@H](O)[C@@H](O)[C@H](N=C(N)N)[C@@H](O)[C@@H]3N=C(N)N)O[C@@H](C)[C@]2(O)C=O)O[C@@H](CO)[C@H](O)[C@H]1O` , Enterococcus faecalis data, zone of inhibition at 900 µg/mL value: 20.3

Entry `Cc1c(Br)cccc1-c1nnc(CN2CCC(n3nc4ccccc4n3)CC2)o1` , Enterococcus faecalis data, zone of inhibition at 900 µg/mL value: 12.1

Entry `COc1cccc(-c2nnc(CN3CCC(n4nc5ccccc5n4)CC3)o2)c1` , Enterococcus faecalis data, zone of inhibition at 900 µg/mL value: 9.26

* * *

Catalogue of compounds with associated zone of inhibition at 300 µg/mL
- Test system: Exserohilum rostratum
- PROTOCOL_SUMMARY: Antifungal activity against Setosphaeria rostrata at 300 ug/ml after 48 hr
- Assay type: functional
- EXPERIMENTAL_CONDITIONS: read-out: IZ
Express your answer in mm, writing the number without its unit.

// known answers, use as guide
CCC(C)n1ncn(-c2ccc(N3CCN(c4ccc(OCC5COC(Cn6cncn6)(c6ccc(Cl)cc6Cl)O5)cc4)CC3)cc2)c1=O (centres undefined) [ITRACONAZOLE]; 3.58
Fc1cccc(-c2nnc(CN3CCC(n4nc5ccccc5n4)CC3)o2)c1F; 3.81
CC(C)(C)c1cc(-c2nnc(CN3CCC(n4nc5ccccc5n4)CC3)o2)cc(C(C)(C)C)c1; 4.54

Summary for this compound, `c1ccc(-c2nnc(CN3CCC(n4nc5ccccc5n4)CC3)o2)cc1` : zone of inhibition at 300 µg/mL is 3.15

* * *

Catalogue of molecules with associated zone of inhibition at 600 µg/mL
- Test system: Candida albicans
- PROTOCOL_SUMMARY: Antifungal activity against Candida albicans at 600 ug/ml after 48 hr
- Assay type: functional
- EXPERIMENTAL_CONDITIONS: read-out: IZ
Express your answer in mm, writing the number without its unit.

O=[N+]([O-])c1ccc(-c2nnc(CN3CCC(n4nc5ccccc5n4)CC3)o2)cc1Cl; 6.25

Entry `Cc1ccc(-c2nnc(CN3CCC(n4nc5ccccc5n4)CC3)o2)cc1Br` , Candida albicans data, zone of inhibition at 600 µg/mL value: 5.51

Entry `c1ccc(-c2nnc(CN3CCC(n4nc5ccccc5n4)CC3)o2)cc1` , Candida albicans data, zone of inhibition at 600 µg/mL value: 6.05

Entry CCC(C)n1ncn(-c2ccc(N3CCN(c4ccc(OCC5COC(Cn6cncn6)(c6ccc(Cl)cc6Cl)O5)cc4)CC3)cc2)c1=O (centres undefined) , Candida albicans data, zone of inhibition at 600 µg/mL value: 5.35

Entry `Cc1c(Br)cccc1-c1nnc(CN2CCC(n3nc4ccccc4n3)CC2)o1` , Candida albicans data, zone of inhibition at 600 µg/mL value: 4.18

Entry `CC(C)(C)c1cc(-c2nnc(CN3CCC(n4nc5ccccc5n4)CC3)o2)cc(C(C)(C)C)c1` , Candida albicans data, zone of inhibition at 600 µg/mL value: 7.08

Entry `Brc1cccc(-c2nnc(CN3CCC(n4nc5ccccc5n4)CC3)o2)c1` , Candida albicans data, zone of inhibition at 600 µg/mL value: 4.03

Entry `Fc1cccc(-c2nnc(CN3CCC(n4nc5ccccc5n4)CC3)o2)c1F` , Candida albicans data, zone of inhibition at 600 µg/mL value: 5.25

Entry `COc1cccc(-c2nnc(CN3CCC(n4nc5ccccc5n4)CC3)o2)c1` , Candida albicans data, zone of inhibition at 600 µg/mL value: 5.01

* * *

- Test system: Exserohilum rostratum
- PROTOCOL_SUMMARY: Antifungal activity against Setosphaeria rostrata at 600 ug/ml after 48 hr
- Assay type: functional
- EXPERIMENTAL_CONDITIONS: read-out: IZ
Threshold check on zone of inhibition at 600 µg/mL: at or above 6 mm gives T, strictly below gives F.

Cc1c(Br)cccc1-c1nnc(CN2CCC(n3nc4ccccc4n3)CC2)o1; F
O=[N+]([O-])c1ccc(-c2nnc(CN3CCC(n4nc5ccccc5n4)CC3)o2)cc1Cl; F
Fc1cccc(-c2nnc(CN3CCC(n4nc5ccccc5n4)CC3)o2)c1F; T
c1ccc(-c2nnc(CN3CCC(n4nc5ccccc5n4)CC3)o2)cc1; T
CCC(C)n1ncn(-c2ccc(N3CCN(c4ccc(OCC5COC(Cn6cncn6)(c6ccc(Cl)cc6Cl)O5)cc4)CC3)cc2)c1=O (centres undefined); T

Data request: Is zone of inhibition at 600 µg/mL at least 6 mm? Consider `CC(C)(C)c1cc(-c2nnc(CN3CCC(n4nc5ccccc5n4)CC3)o2)cc(C(C)(C)C)c1`
Data returned: T

Data request: Is zone of inhibition at 600 µg/mL at least 6 mm? Consider `Cc1ccc(-c2nnc(CN3CCC(n4nc5ccccc5n4)CC3)o2)cc1Br`
Data returned: F

Data request: Is zone of inhibition at 600 µg/mL at least 6 mm? Consider `Brc1cccc(-c2nnc(CN3CCC(n4nc5ccccc5n4)CC3)o2)c1`
Data returned: F
